# systemName: SARS-CoV-2 spike (WH) on pseudotyped lentivirus (SARS-CoV-2 (Wuhan-Hu-1), UniProt P0DTC2 P0DTC2:14-1273)
# measurementNotes: filter
# measurementConditions: protein: virion; tags: pseudotyped lentivirus, BEI NR-52948 kit; chain copies: 3; label: 5'-32P; four-way junction (proposed)

binder | Kd [pM]
MSA52 (ssDNA) DNA: TTACGTCAAGGTGTCACTCCGTAGGGTTTGGCTCCGGGCCTGGCGTCGGTCGTCTCTCGCGAAGCATCTCTTTGGCGTG | 18.4
